Values were extracted from the supplement of paper PMC7125110.

B1: glmS ribozyme (parent)
chain: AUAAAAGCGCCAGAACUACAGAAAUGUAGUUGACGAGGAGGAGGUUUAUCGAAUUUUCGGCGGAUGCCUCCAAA

- Variants of: B1
- run-description: self-cleavage kobs at 40 uM GlcN6P; higher = faster cleavage; RNA array
- stated-conditions: with glucosamine-6-phosphate
Variants at the floor of the assay were thinned out.

chain | self-cleavage kobs at 40 uM GlcN6P
AUAAAAGCGCCAGAACUACAGAAAUGUAGUUAACGAGGAGGAGGUUUAUCGAAUUUUCGGCGGAUGCCUUCAAA | 6.22e-05 s⁻¹
AUAAAAGCGCCAGAACUACAGAAAUGUAGUUGACGAGGAGGAGGUUUAUUGAAUUUACGUCGGAUGCCUCCAAA | < 1e-05 s⁻¹
AUAAAAGCGCCAGAACUACAGAAAUGUAGUUGACGAGGAGGGGGUCUAUCGAAUUUUCGGCGGAUGCCUCCAAA | 5.01e-05 s⁻¹
AUAAAAGCGCCAGAACUACAGAAAUGUAGUUGACGAGGAGGAGGGUUUUCGAAUUUUCGGCGGAUGCCUCGAAA | < 1e-05 s⁻¹
AUAAAAGCGCCAGAACUACAGAAAUGUAGUUGACGAGCAGGAGGUUUAUCGAAUUCUCGGCGGAUGCCUCCAAA | < 1e-05 s⁻¹
AUAAAGGCGCCCGAACUACAGAAAUGUAGUUGACGAGGAGGAGGUUUAUCGAAUUUUCGGCGGAUGCCUCAAAA | < 1e-05 s⁻¹
AUAAAAGCGCCAGAACUACAGAAAUGUAGUCGACGAGGAGGAGGUUUAUCGAAUCUUCGGCGGAUGCCUCCAAA | 8.92e-05 s⁻¹
AUAAAAGCGCCAGAACUACAGAAAUGUAGUUGACGAGAAGGUGUUUUGUCGAAUUUUCGGCGGAUGCCUCCAAA | < 1e-05 s⁻¹
AUAAAAGCGCCGGAACUACAGAAAUGUAGUUGUCGAGGAGGAGGUUUAUCGAAUUUUCGGCGGAUGCCUCCAAA | < 1e-05 s⁻¹
AUAAAAGCGCCAGAACUACAGAAAUGUAGUUGACGAGGAGGAGGUAUAUCGAAUUUGCGGCGGAUGCCUCCAAA | < 1e-05 s⁻¹
AUAAAAGCGCCAGAAAUACAGAAAUGUAGUUGACGAGGAGGAGGUUUAUCGAAUUUUUGGCGGAUGCCUCCAAA | < 1e-05 s⁻¹
AUAAAAGCGCCAGGAACUACGAAAUGUAGUUGACGAGGAGGAGGUUUAUCGAAUUUUCGGCGGAUGCCUCCAAA | 0.000161 s⁻¹
AUAAAAGCGCCAGAACUACAGAAAUGUAGUUGGCGAGGAGGAGGUUAAUCGAAUUUUCGGCGGAUGCCUCCAAA | < 1e-05 s⁻¹
AUAAAAGUGCCAGAACUACAGAAAUGUAGUUGACAAGGAGGAGGUUUAUCGAAUUUUCUGCGGAUGCCUCCAAA | < 1e-05 s⁻¹
AUAAAAGCGCCAGAACUACAGAAAUGUAGAUGUGGAAGAGGAGGUUUAUCGAAUUUUCGGCGGAUGCCUCCAAA | < 1e-05 s⁻¹
AUAAAAGGGCCAGAACUACAGAAAUGUAGUUGACGAGGAGGAGGUUUAUCGAAUUUCCGGCGGAUGCCUCCAAA | < 1e-05 s⁻¹
AUAAAAGCGCAAGAACUACAGAAAUGUAGUUGACGAGGAGGAGGUUUAUCGAAUUCUCGGCGGAUGCCUCCAAA | < 1e-05 s⁻¹
AUAAAAGCGCCAGAACUACAGAAAUGUAGUUGACGAGGAGGAGGUUUAUCGAAAUUUCGGCGGAUGCCUCCAAA | 0.00106 s⁻¹
AUAAAAGUGCCAGAACUACAGAAAUGUAGUUGACGAGGAGGAGGUUCAUCGAAUUUUCGGCGGAUGCCUCCAAA | < 1e-05 s⁻¹
AUAAAAGUGCCAGAACUACAGAAAUGUAGUUGACGAGGAGGCGGUUUAUCGAAUUUUCGGCGGAUGCCUCCAAA | < 1e-05 s⁻¹
AUAAAAGCGCCAGAACUACAGAAAUGUAGUUGACGAGGAGGAGGUUUAUCGAAUUUUCGGCGGAUACCUCGAAA | 5.97e-05 s⁻¹
AUAAAAGCGCCAGAACUACAGAAAUGUAGUGGACGAGGAGGAGGUUUAUCGAAUUUUCGGGGGAUGCCUCCAAA | < 1e-05 s⁻¹
AUAAAAGCGCCAGAACUACAGAAAUGUACUUGACGAGGUGGAGGUUUAUCGAAUUUUCGGCGGAUGCCUCCAAA | 5.54e-05 s⁻¹
AUAAAAGCGCCAGAAUUACAGAAAUGUAGUUGACGAGGAGGAGGUUUAUCGAAUUUUCGGCGGAUGCCUUCAAA | 0.00111 s⁻¹
AUAAAAGCGCCAGAACUACAGAAAUGUAGUUGAGGAGGAGGAGGUUUAUCCAAUUUUCGGCGGAUGCCUCCAAA | < 1e-05 s⁻¹
AUAAAAUCGCCAAAACUACAGAAAUGUAGUUGACGAGGAGGAGGUUUAUCGAAUUUUCGGCGGAUGUCUCCAAA | < 1e-05 s⁻¹
AUAAACGCGCCAGAACUACAGAAAUGUAGUUGACGAGGAGGAGGUUUAUCGAAUUUUUGGCGGAUGCCUCCAAA | < 1e-05 s⁻¹
AUAAAAGCGCCAGAACUACAGAAAUGUACUUGACGAGGAGGAGGUUUAUCGAAUUAUCGGCGGAUGCCUCCAAA | 4.47e-05 s⁻¹
